Target: T1, His-tagged cynomolgus monkey TfR ectodomain (cyTFRC_89_760; mature protein) (cynomolgus monkey (Macaca fascicularis), UniProt Q5RDH6 89-760 (Pongo abelii entry))
T1 construct: also called cTfR; cTfR ectodomain
T1 chain: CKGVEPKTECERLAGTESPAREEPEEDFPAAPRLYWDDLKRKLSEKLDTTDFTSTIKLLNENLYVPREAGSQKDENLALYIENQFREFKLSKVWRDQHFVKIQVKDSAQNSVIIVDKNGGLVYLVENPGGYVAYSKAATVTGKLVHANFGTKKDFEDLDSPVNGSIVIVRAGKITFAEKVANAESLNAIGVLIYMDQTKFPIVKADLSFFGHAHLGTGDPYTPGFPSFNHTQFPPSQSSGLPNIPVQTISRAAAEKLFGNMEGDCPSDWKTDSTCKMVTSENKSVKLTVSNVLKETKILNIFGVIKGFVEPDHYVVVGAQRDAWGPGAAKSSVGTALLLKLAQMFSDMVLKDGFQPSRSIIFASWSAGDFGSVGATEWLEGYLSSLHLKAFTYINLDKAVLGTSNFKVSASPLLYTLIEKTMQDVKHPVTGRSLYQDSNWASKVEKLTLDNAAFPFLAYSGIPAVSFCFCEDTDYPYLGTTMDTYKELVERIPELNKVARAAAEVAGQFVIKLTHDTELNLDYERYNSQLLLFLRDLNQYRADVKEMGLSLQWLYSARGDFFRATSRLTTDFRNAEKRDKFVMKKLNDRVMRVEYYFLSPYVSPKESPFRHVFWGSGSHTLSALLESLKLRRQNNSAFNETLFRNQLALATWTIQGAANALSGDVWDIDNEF
Assay: SPR; KD on cTfR against KD on hTfR
Catalogue of Cynomolgus/human KD ratio values
Answer with the value's number alone.

Q: I'd like to know its Cynomolgus/human KD ratio. The binder in question is 531_1L2_variant24 Fab (Fab, V domains shown, Humanized Fab; The His-tag was removed with TEV protease before SPR) VH: QVQLVQSGAEVKKPGASVKVSCKASGYTFTRYYLNWVRQAPGQGLEWIGMIDPSVSETHYAQKFQGRATLTVDKSTSTAYMELSSLRSEDTAVYYCSQIRLPYYYAMDSWGQGTTVTVSS VL: DIQMTQSPSSLSASVGDRVTITCRASQDISSFLNWYQQKPGKAVKLLIYYTSRLQSGVPSRFSGSGSGTDFTLTISSLQPEDFATYFCQQGNTLPRTFGGGTKVEIK
Ans: 8.3

Q: How about 531_1L2_variant21 Fab (Fab, V domains shown, Humanized Fab; The His-tag was removed with TEV protease before SPR) VH: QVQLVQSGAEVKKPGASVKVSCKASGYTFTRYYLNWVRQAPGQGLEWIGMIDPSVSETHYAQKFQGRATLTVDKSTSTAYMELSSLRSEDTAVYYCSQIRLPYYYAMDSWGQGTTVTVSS VL: DIQMTQSPSSLSASVGDRVTITCRASQDISSFLNWYQQKPGKAVKLLIYYTSRLQSGVPSRFSGSGSGTDYTLTISSLQPEDFATYFCQQGNTLPRTFGGGTKVEIK ?
Ans: 8.3

Q: Param item: 531-1L2_mouse mAb (antibody, IgG1, V domains shown, constant regions are not) VH: QVQLQQPGAELVSPGASVKLSCKASDYTFTRYWLNWVKQRPGQGLEWIGMIDPSVSECHYSQMFKDKATLTVDKSSSTAYMLLNSLTSEDSAVYYCSQIRLPYYYAMDSWGQGTSVTVSS VL: DIQMTQTPSSLSASLGDRVTISCRASQDINSFLNWYQQKPDGTVKLLIYYTSRLHSGVPSRFSGSGSGTDYSLTIGNLDQEDIATYFCQQGNTLPRTFGGGTKLELK
Ans: 3.9
